targetOrTestSystem: T1, CTD^313–448 of human LPL (human, UniProt P06858 340-475)
T1 construct: lipoprotein lipase (LPL), human, C-terminal domain, residues 313-448; numbers count on: the mature protein; the printed surface densities (85 RU ~ 5 fmols/mm^2) fit about 17 kDa, that is a CTD without the tag (surmise); also called LPL CTD; C-terminal domain of LPL; source: Drosophila S2 cells, secreted as RS-DIII-ent-CTD, purified (anti-uPAR mAb R24 column)
T1 sequence (looked up): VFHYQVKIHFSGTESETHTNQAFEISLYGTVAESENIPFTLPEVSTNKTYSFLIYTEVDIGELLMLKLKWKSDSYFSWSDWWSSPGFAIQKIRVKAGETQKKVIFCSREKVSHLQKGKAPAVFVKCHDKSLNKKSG
runDescription: SPR; Biacore T200, CM4 chip; LPL CTD captured on immobilised mAb 5D2 (~100–200 RU), GPIHBP1 as analyte 8 nM to 4 µM; 20°C; 10 mM HEPES, 150 mM NaCl, 3 mM EDTA (pH 7.4), 0.05% P20; single- and multi-cycle kinetics, global fit to a 1:1 model
conditionSet: both partners purified
property: koff (s⁻¹)
Report the value in s⁻¹ with no unit label.

binder	koff / s⁻¹
GPIHBP1^1–131 (domain or fragment, human, UniProt Q8IV16 21-151, looked up, numbers count on: the mature protein; not shown: uPAR domain III (DIII), N-terminal, cleaved) QTQQEEEEEDEDHGPDDYDEEDEDEVEEEETNRLPGGRSRVLLRCYTCKSLPRDERCNLTQNCSHGQTCTTLIAHGNTESGLLTTHSTWCTDSCQPITKTVEGTQVTMTCCQSSLCNVPPWQSSRVQDPTG	0.22

Reported koff for GPIHBP1^1–131/R38G N-gly (domain or fragment, human, UniProt Q8IV16 21-151, looked up, the single N-linked glycan removed with N-glycanase, numbers count on: the mature protein; As m1 after removal of the N-glycan; source: Drosophila S2 cells, purified, then incubated overnight at 37°C with N-glycanase under native conditions; not shown: uPAR domain III (DIII), N-terminal, cleaved) QTQQEEEEEDEDHGPDDYDEEDEDEVEEEETNRLPGGGSRVLLRCYTCKSLPRDERCNLTQNCSHGQTCTTLIAHGNTESGLLTTHSTWCTDSCQPITKTVEGTQVTMTCCQSSLCNVPPWQSSRVQDPTG was 0.16

Field koff (entry GPIHBP1^1–131/R38G (domain or fragment, human, UniProt Q8IV16 21-151, looked up, numbers count on: the mature protein; Monomeric by SEC; Carries a single N-linked glycan; also called soluble human GPIHBP1; not shown: uPAR domain III (DIII), N-terminal, cleaved) QTQQEEEEEDEDHGPDDYDEEDEDEVEEEETNRLPGGGSRVLLRCYTCKSLPRDERCNLTQNCSHGQTCTTLIAHGNTESGLLTTHSTWCTDSCQPITKTVEGTQVTMTCCQSSLCNVPPWQSSRVQDPTG ) reads 0.12

So, GPIHBP1^34–131/R38G (domain or fragment, human, UniProt Q8IV16 54-151, looked up, numbers count on: the mature protein; Monomeric by SEC; also called truncated GPIHBP1 lacking the acidic domain; isolated LU domain; source: Drosophila S2 cells; not shown: uPAR domain III (DIII), N-terminal, cleaved) LPGGGSRVLLRCYTCKSLPRDERCNLTQNCSHGQTCTTLIAHGNTESGLLTTHSTWCTDSCQPITKTVEGTQVTMTCCQSSLCNVPPWQSSRVQDPTG ? Its koff was 0.1

These entries and their values trace back to paper PMC4755760.
